System: Leishmania donovani
experimentalProtocol: In vitro growth inhibitory activity against Leishmania donovani amastigotes at 37 degrees C under a 5% CO2 atmosphere for 96 hours
Format: functional, organism-based
valueType: IC50

Query: Quick one: IC50 for CCCCC(=O)NCC1OC(n2ccc(=O)[nH]c2=O)CC1O (stereo unspecified) ?
Result: > 97 µM

###

System: Leishmania donovani
experimentalProtocol: In vitro growth inhibitory activity against Leishmania donovani amastigotes at 37 degrees C under a 5% CO2 atmosphere for 96 hours
Format: functional, organism-based
The following compounds are shown together with reported IC50 values.

Example cases with answers are listed next.
{"columns": ["compound", "IC50"],
 "data": [
  ["O=c1ccn(C2C=CC(COC(c3ccccc3)(c3ccccc3)c3ccccc3)O2)c(=O)[nH]1 (stereo not drawn)", "> 66 µM"],
  ["O=c1ccn(C2CC(F)C(CNC(c3ccccc3)(c3ccccc3)c3ccccc3)O2)c(=O)[nH]1 (stereo not drawn)", "> 63 µM"],
  ["CC(C)(C)[Si](C)(C)OCC1OC(n2ccc(=O)[nH]c2=O)CC1F (stereo not drawn)", "> 87 µM"]
]}

Query: // lookup IC50 for CC(C)(C)[Si](C)(C)OC1CC(n2ccc(=O)[nH]c2=O)OC1CNP(=O)(Oc1ccccc1)Oc1ccccc1 (stereo not drawn)
Result: < 6 µM

Query: Then this compound: `CC(C)(C)[Si](C)(C)O[C@H]1C[C@H](n2ccc(=O)[nH]c2=O)O[C@@H]1COP(=O)(Oc1ccccc1)Oc1ccccc1`
Result: > 17 µM

Query: And for `Cc1ccc(S(=O)(=O)OC[C@H]2O[C@@H](n3ccc(=O)[nH]c3=O)C[C@@H]2O)cc1` ?
Result: > 79 µM

Query: Next record, please: `O=c1ccn([C@H]2C[C@H](O)[C@@H](COP(=O)(Oc3ccccc3)Oc3ccccc3)O2)c(=O)[nH]1`
Result: > 65 µM

Query: Same question, `CCOP(=O)(OCC)OC[C@H]1O[C@@H](n2ccc(=O)[nH]c2=O)C[C@@H]1O[Si](C)(C)C(C)(C)C` this time
Result: 63 µM

###

Tested on: L6
experimentalProtocol: In vitro cytotoxicity aganist rat skeletal myoblasts (L-6 cells) after 72 hours
Format: functional, cell-based
experimentalContext: L6, 72 h
pIC50: −log10 of the molar value.
valueType: pIC50

Some compounds with known pIC50 results, for comparison:
{"columns": ["compound", "pIC50"],
 "data": [
  ["O=c1ccn([C@H]2C[C@H](O)[C@@H](COP(=O)(Oc3ccccc3)Oc3ccccc3)O2)c(=O)[nH]1", "< 3.71"],
  ["CCCCC(=O)OC[C@H]1O[C@@H](n2ccc(=O)[nH]c2=O)C[C@@H]1O", "< 3.54"],
  ["O=C(OC[C@H]1O[C@@H](n2ccc(=O)[nH]c2=O)C[C@@H]1O)c1ccccc1", "< 3.57"],
  ["CC(=O)NCC1OC(n2ccc(=O)[nH]c2=O)CC1O (stereo not given)", "< 3.47"],
  ["CCCCC(=O)NCC1OC(n2ccc(=O)[nH]c2=O)CC1O (stereo not given)", "< 3.54"]
]}

Query: Using the record for `O=c1ccn([C@H]2C[C@H](F)[C@@H](CO)O2)c(=O)[nH]1` , report its pIC50.
Result: < 3.41

Query: Entry O=C(NCC1OC(n2ccc(=O)[nH]c2=O)CC1O)c1ccccc1 (stereo not given) please
Result: < 3.57

Query: Continue with O=c1ccn(C2CC(O)C(CNP(=O)(Oc3ccccc3)Oc3ccccc3)O2)c(=O)[nH]1 (stereo not given)
Result: < 3.71

Query: Moving on to the next compound: Cc1ccc(S(=O)(=O)NCC2OC(n3ccc(=O)[nH]c3=O)CC2O)cc1 (stereo not given)
Result: < 3.63

Query: Repeat with `CC(C)(C)[Si](C)(C)O[C@H]1C[C@H](n2ccc(=O)[nH]c2=O)O[C@@H]1COC(c1ccccc1)(c1ccccc1)c1ccccc1`
Result: < 3.81
